The following compounds are shown together with reported nuclei count values.
Assay: reduction of polyQ htt aggregates in cells – imaging, exon1htt(103Q)mCFP cells, high-content imaging, primary screen (AID 483);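 also: compound exposure lasted 3 days before fixation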;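 as to nuclei count: percent of the per-plate median nuclei count of sample wells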
Conditions: exon1htt(103Q)mCFP cell line, aggregate imaging, at 2 µM; measured here: cell count, toxicity
Endpoint Name: nuclei count (%)

* Oc1cnc2ccccc2c1CN1CCOCC1 | 111
* COc1ccccc1-c1noc(-c2ccco2)n1 | 82.3
* C=C(C)Cn1c(SCC)nc2ccccc2c1=O | 98.7
* Cc1cccc(N2CN=c3s/c(=C\c4ccncc4)c(=O)n3C2)c1 | 99.6

* * *

The following molecules are shown together with reported inhibition values.
Experiment: TLR3 IRF3 reporter activation blockers – cell-based, poly I:C stimulus, luciferase, 10K MLSCN set, primary screen (AID 602277)
Conditions: HEK293-TLR3 RL24 IRF3 luciferase reporter, at 10 µM, stronger effect = higher value
Endpoint Name: inhibition (%)

- CCc1nnc(NC(=O)C2CCN(c3nccc(C)n3)CC2)s1: 14.7
- CCOC(=O)C1CCN(Cc2ccc(C(=O)OC)cc2)CC1: 12.5
- CN1CCN(C(=O)CN(Cc2ccc(Cl)cc2)S(C)(=O)=O)CC1: 19.4
- COc1ccccc1NS(=O)(=O)c1ccc(NC(=O)c2nc3ncccn3n2)cc1: 13.9
- O=C(c1ccc(Cl)cc1)N(Cc1cccs1)C1CCS(=O)(=O)C1 (stereo unspecified): -0.322
- O=C(O)CCCNS(=O)(=O)c1ccc(NCc2ccccc2)c(C(=O)O)c1: 10.3
- Cn1c(Cc2csc(N)n2)nnc1SCC(=O)NC1CCCCC1: -2.17
- CCn1cc(C(=O)N2CCCC2)c(=O)c2cc(S(=O)(=O)N3CCOCC3)ccc21: 12.8
- Cc1ccc(N2CCN(C(=O)c3ccccc3Br)CC2)c(C)c1: 23.3
- Cc1ccc(-c2nn(C)c(=O)c3ccccc23)cc1S(=O)(=O)N1CCOCC1: 30.3
- CC1CN(CC(O)COc2ccc(C(C)C)cc2)CC(C)O1 (stereo unspecified): 98.7
- Cc1ccc2[nH]c(=O)c(CN(CCc3ccccc3)Cc3nnnn3CC3CCCO3)cc2c1 (stereo unspecified): -6.03
- CCCn1c(=N)n(CCOc2ccc(OC)cc2)c2ccccc21: 15.4
- O=C(O)c1cc(/C=N\O)ccc1OCc1ccccc1: 11.6
- C/C(Cl)=C\Cn1c(NCCc2ccccc2)nc2c1c(=O)n(C)c(=O)n2C: 2.85
- COc1ccc(OC)c(S(=O)(=O)Nc2ccc(C(N)=O)cc2)c1: 23.9
- CCn1c(=O)cc(SCC(=O)N2CCN(C3CCCCC3)CC2)c2ccccc21: 65.5
- O=C(c1ccc2c(c1)OCO2)N1CCNc2ccccc2C1: 2.68
- COc1cc2nc(N3CCN(C(=O)C4CCCO4)CC3)nc(N)c2cc1OC (stereo unspecified): 30.2
- CCn1nc(C(=O)OCC(=O)c2cc(C)n(Cc3cccs3)c2C)c2ccccc2c1=O: 7.59
- CCCCNC(=O)OC(C)CNC(=O)Oc1cccc(C)c1 (stereo unspecified): 15.6
- CCOC(=O)c1cnn(-c2ncnc3c2cnn3Cc2ccccc2)c1N: 17.4
- CCNC(=O)c1ccc(NS(=O)(=O)c2ccccc2)cc1: 12.4
- Cc1c(C(=O)O)oc2ccc(S(=O)(=O)NCCC3=CCCCC3)cc12: 15.9
- Cc1cccc(N(C)C(=O)c2cc3cc4ccc(C)cc4nc3o2)c1: -34.7
- CC1=C(C(N)=O)C(c2ccc(Cl)cc2Cl)n2ncnc2N1 (stereo unspecified): 33.2
- O=C(O)CCN1C(=O)c2ccccc2C1=O: 6.42
- CCOc1ccc(-n2c(C)nc3c(cnn3-c3ccc(Cl)cc3)c2=O)cc1: -8.54
- Cc1nc(SCC(=O)N2CCC(C(N)=O)CC2)n[nH]1: -1.6
- CCOC(=O)c1sc2nc3c(cc2c1N)COC(C)(C)C3: -104
- O=C(CSc1ccc(Cl)cc1)OCc1nnc(-c2ccccc2)o1: -4.44
- O=C1CCC(=O)N1OCCCCOc1ccccc1: 18
- CCn1c(=O)cc(SCC(=O)Nc2cccnc2)c2ccccc21: -5.54
- COC(=O)c1ccc(NC(=O)CN2C(=O)CSC2=O)cc1: 10.7
- Cc1cc(NC(=O)CSc2ccc(Cl)cc2)no1: -14.7
- N#CCSc1nc2c(c(C3CC=CCC3)c1C#N)CCC2 (stereo unspecified): 27.7
- CCn1cc(C(=O)O)c(=O)c2cnc(N3CCNCC3)nc21: 33.1
- CCn1c(CCNC(=O)c2ccc(OC)c(OC)c2)nc2ccccc21: 6.06
- CCOC(=O)CNS(=O)(=O)c1c(C)noc1C: 2.6
- CCOc1ccc(-n2c(=O)cc(N3CCN(c4ccccc4)CC3)[nH]c2=O)cc1: 11.2
- CC1(C)Cc2nc3oc4c(N(CCO)Cc5ccccc5)ncnc4c3cc2CO1: 5.17

* * *

Test: inhibitors of TNFa-induced NFkB p65 translocation, primary screen, imaging, HUVEC, MLSMR starter and 10KST1 sets (AID 438);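 also: compound added about 3h40 before a 20 min TNFalpha stimulation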
Conditions: HUVEC TNFa-induced p65 nuclear translocation; measured here: nuclei count (cytotoxicity indicator), at 2.08 µM
Endpoint Name: cell count

• CCCn1nnnc1SCC(=O)c1ccc2c(c1)OCCO2 = 571
• CCNC(=O)N1c2ccc(OCC)cc2C(C)=CC1(C)C = 599
• COc1cc(OC)cc(-c2nnc(Nc3nc4c(F)cccc4s3)o2)c1 = 345
• COc1ccccc1-c1cc(C(=O)NCCCn2ccnc2)no1 = 459
• C=CCOc1cccc(C2/C(=C(\O)c3ccc(F)cc3)C(=O)C(=O)N2CCN(C)C)c1 (configuration not stated) = 699
• COc1ccc(Cn2nnnc2C(c2ccncc2)N2CCOCC2)cc1 (configuration not stated) = 543
• Cc1ccc2nc(SC(C)C(=O)N3CCCC3)[nH]c2c1 (configuration not stated) = 467
• O=C(NC(NC1CCS(=O)(=O)C1)C(=O)c1cccs1)c1ccccc1 (configuration not stated) = 269
• COC(=O)c1ccc(NC(=O)CN2C(=O)CSC2=O)cc1 = 454
• CN(C)S(=O)(=O)c1ccc(C(=O)N2CCC(c3nc4ccccc4o3)CC2)cc1 = 468
• Brc1ccc(C2=Nn3c(nnc3-c3ccncc3)SC2)cc1 = 369
• Cn1c(=O)c(-c2ccccc2)nn2c3ccccc3nc12 = 704
• CC(=O)Nc1cccc(NC(=O)CSc2nnnn2C(C)C)c1 = 638
• CCc1nnc(NC(=O)c2cccc(C(=O)Nc3nnc(CC)s3)n2)s1 = 700
• CCOC(=O)c1sc(NC(=O)CSc2nnc(-c3ccco3)n2CC)c(C(=O)OCC)c1C = 696
• COc1ccc2c(c1)c1c(n2C(C)=O)C(OC(C)=O)=NCC1 = 904
• CCCCn1nnnc1SCC(=O)N1CCN(C(=O)c2ccco2)CC1 = 247
• COc1ccccc1C(=O)N1CCCC(c2nc(-c3cc(OC)c(OC)c(OC)c3)no2)C1 (configuration not stated) = 307
• CCOc1ccc(NC(=O)CN(C)S(=O)(=O)c2cccs2)cc1 = 650
• NC(=O)c1nsnc1-c1ccccc1O = 504
• O=C(C1CCC1)N1CCc2cc(S(=O)(=O)Nc3ccc4c(c3)OCO4)ccc21 = 606
• CC(C)(C)n1nc2c(c1NC(=O)COc1ccc(Cl)cc1)CSC2 = 643
• CC1CCN(CCCNC(=O)c2cn(C)c3ccc(S(=O)(=O)N4CCCC4)cc3c2=O)CC1 = 515
• Cc1cc(C(=O)Nc2cccc(O)c2)c(C)o1 = 477
• Cc1ccc(-c2nn(C)c(=O)c3ccccc23)cc1S(=O)(=O)N1CCOCC1 = 595
• CN(C)c1ccc(NC(=O)CSCc2nc3c(nnn3Cc3ccc(F)cc3)c(=O)[nH]2)cc1 = 579
• CCOC(=O)C1=C(C)Nc2ncnn2C1c1ccccc1F (configuration not stated) = 469

* * *

Assay: reduction of polyQ htt aggregates in cells – imaging, exon1htt(103Q)mCFP cells, high-content imaging, primary screen (AID 483);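 also: compound exposure lasted 3 days before fixation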
Conditions: exon1htt(103Q)mCFP cell line, aggregate imaging, at 2 µM; stronger effect = higher value
Endpoint Name: inhibition of aggregation (%)

* CC(=O)Oc1cccc(/C=c2\sc3nc(-c4ccco4)nn3c2=O)c1 | -30
* CCSC1=C(C#N)C(c2cccc(OC)c2)CC(=O)N1 (centres undefined) | -16.9
* CCOC(=O)N1CCC(NC(=O)c2ccc3nc(N4CCOCC4)sc3c2)CC1 | 0
* CC(C(=O)NC1CCCCCC1)N(c1ccccc1)S(C)(=O)=O (centres undefined) | 4.5
* Cc1ccc(S(=O)(=O)N(C)Cc2cc3ccccc3[nH]c2=O)cc1 | 12.8
* CCOc1ccccc1NC(=O)N1CCCC1C(=O)Nc1nnc(CC)s1 (centres undefined) | -35.9
* COC(=O)c1cc(NS(=O)(=O)c2ccc3c(c2)CCC(=O)N3)cc(C(=O)OC)c1 | -24.1
* CCOC(=O)c1cc2c(=O)n3cccc(C)c3nc2n(CCc2ccccc2)c1=N | -9
* COc1cc(NC(=O)c2cc(-n3cnnc3)ccc2Cl)cc(OC)c1 | -12.2
